Tested on: NCI-H522 lung
Assay: NCI-60 one-dose screen, 48 h (100 = growth as untreated, 0 = no growth, -100 = all killed)
Conditions: 10 µM unless noted
The panel holds about 83,000 compounds, 20% with a hit somewhere; the sample as a whole holds those more often.
Label false (0) if growth falls below 40%; label true (1) in every other case.

Example cases with answers are listed next.
COc1ccc(/C(C)=C(\c2ccc(Cl)cc2)c2ccc(OCCN3CCCC3)cc2)cc1	true (1)
COc1cc2oc(-c3cccc(NC(=O)c4ccc5c(c4)OCO5)c3)cc(=O)c2c(OC)c1OC	false (0)
O=C1NC(=C(Cl)Cl)/C(=N/S(=O)(=O)NCCc2c[nH]c3ccccc23)N1	false (0)
O=c1oc2c(cnc3ccccc32)cc1-c1cccs1	true (1)

Q) Determine whether this compound has growth no lower than 40%: CCOC(=O)n1cc(-c2nonc2-c2cn(C)c3ccccc23)c2ccccc21
A) false (0)

Q) Determine whether this compound has growth no lower than 40%: O=C(CSc1nnc2sc(Nc3cccc(Cl)c3)nn12)c1ccc(F)cc1
A) true (1)

Q) Determine whether this compound has growth no lower than 40%: CCOC(=O)/C=C/c1c(C)[nH]c(=O)[nH]c1=O
A) true (1)

Q) Determine whether this compound has growth no lower than 40%: CN(C)c1ccc(C(=NO)c2ccc(N(C)C)cc2)cc1
A) false (0)

Q) Determine whether this compound has growth no lower than 40%: CN(C)c1ccc(/C=C2/C=C(c3ccccc3)OC2=O)cc1
A) true (1)

Q) Determine whether this compound has growth no lower than 40%: CC/C(Cc1ccccc1)=C(\c1ccc(OCCN2CCCCCC2)cc1)c1ccc(OC(=O)NCc2ccccc2)cc1
A) true (1)

Q) Determine whether this compound has growth no lower than 40%: O=C(Nc1nc(C(=O)N2CCN(C(c3ccccc3)c3ccccc3)CC2)cs1)c1ccc(NC2CCCCC2)c([N+](=O)[O-])c1
A) true (1)

---

Test system: HCT-116 colon
Experiment: NCI-60 one-dose screen, 48 h (100 = growth as untreated, 0 = no growth, -100 = all killed)
Conditions: 10 µM unless noted
This is part of a sample that, as a whole, favours compounds with a hit. Of some 83,000 tested, about 20% had one in any assay.
measurementName: growth (%)
Provide only the numeric value, understood in %.

CCN1C(=O)N(CC)C2C1NN=C1SCC(=O)N12 (configuration not stated)	9.44
COc1cc2ncnc(Nc3ccc(F)c(Cl)c3)c2cc1OCC(=O)N1CCN(c2ccc(F)cc2)CC1	88.7
O=C(CCCCNC(=O)c1cc(=O)c(O)co1)Nc1ccccc1	30
CCCCSCC(=O)c1ccccc1	95.2
COc1ccc2nc3ccccc3c(NCc3ccc(F)cc3)c2c1	8.89
O=C1/C(=C/c2ccccc2[N+](=O)[O-])COc2ccc(O)cc21	-13.8

Per the records, this compound ( O=C(Cn1nnc2ccccc21)N/N=C/c1ccccc1F ) has growth equal to 101

---

Test system: SNB-19 CNS
Assay: NCI-60 one-dose screen, 48 h
Settings: 10 µM unless noted
About 83,000 compounds went through this panel and 20% of them were active in at least one assay; those are over-represented in the sample as a whole. Calls of active or inactive are those of the source. How the source made its calls: active means growth percent below 10; inactive means the rest.
Valid outcomes are listed here; reply with one: 1 = active, -1 = inactive

Example cases with answers are listed next.
O=C1/C(=C/c2ccccc2)CN(C(=O)c2cccnc2)C/C1=C\c1ccccc1	1
O=c1ccc2nc(C(F)(F)F)nn(-c3ccccc3)c-2c1	-1
CC(=O)Nc1c(Cl)cc(Cl)c2c1Cc1cc([N+](=O)[O-])ccc1-2	-1
CC1=C(C(=O)n2c3ccccc3c3ccccc32)C(c2cccc([N+](=O)[O-])c2)C(C(=O)n2c3ccccc3c3ccccc32)=C(C)N1	-1
CC1(C)CC2=C3C=C[C@@H]4[C@@]5(C)CC[C@H](O)C(C)(C)[C@@H]5CC[C@@]4(C)[C@]3(C)CC[C@@]2(C(=O)O)CC1=O	-1
COc1cc2c3c(c1O)-c1ccccc1[C@@H]1OC(=O)N(CC2)[C@H]31	-1
COC1=CC(c2ccc[nH]2)=N/C1=C\c1[nH]c(C)c(CC(=O)OCc2ccccc2)c1C	-1
CN1CCN(CCOc2ccc(-c3cnc4c(-c5ccc(C(F)(F)F)cc5)cnn4c3)cc2)CC1	-1

Q) What did this assay record as the result for Fc1ccc(CNc2c3ccccc3nc3ccccc23)cc1 ?
A) -1

Q) What did this assay record as the result for COc1cc(C2Cc3ncccc3-c3[nH]c(=O)c4cccnc4c32)cc(OC)c1OC (configuration not stated) ?
A) -1
